target: Sirt2 (Homo sapiens, UniProt Q8IXJ6); construct: made in house; assay: HPLC delipoylation assay of lipoylated peptides with Sirt2; type: biochemical; settings: Sirt2 + NAD+, 37° C., monitored at 280 nm after 40 min
Sequence (Q8IXJ6 whole entry, species assumed): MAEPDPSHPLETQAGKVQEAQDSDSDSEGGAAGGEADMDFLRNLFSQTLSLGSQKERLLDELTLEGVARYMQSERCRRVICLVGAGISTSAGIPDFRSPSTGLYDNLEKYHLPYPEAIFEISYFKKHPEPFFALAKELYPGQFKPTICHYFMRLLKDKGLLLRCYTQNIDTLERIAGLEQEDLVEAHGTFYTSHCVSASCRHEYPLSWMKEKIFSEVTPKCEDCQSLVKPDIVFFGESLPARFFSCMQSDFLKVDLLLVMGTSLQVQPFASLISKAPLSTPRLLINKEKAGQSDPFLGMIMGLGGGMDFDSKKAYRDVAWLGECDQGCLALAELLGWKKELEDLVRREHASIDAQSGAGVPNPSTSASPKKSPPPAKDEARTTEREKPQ
OBSERVATION_TYPE: Delipoylation product (HPLC yield of delipoylated product) (%)

# SUBSTANCE, MEASURED_RESULT
measured = [
    ("SDPIIK(lip)GSGTWW [KAlip-3]", 98),
    ("SGASEK(lip)DIVHSGWW [KAlip-4]", 100),
    ("ALESVK(lip)AASEWW [KAlip-10]", 71),
]

(I) EIETDK(lip)AVVTWW [KAlip-6]
(II) EIETDK(lip) TSVQWW [KAlip-7]
Prompt: Select one. Lower Delipoylation product (HPLC yield of delipoylated product): I or II To answer, give the label that identifies your chosen option.
Completion: II
(II: 65%, I: 100%)
